Test system: MDA-MB-231 breast
test protocol: NCI-60 one-dose screen, 48 h (100 = growth as untreated, 0 = no growth, -100 = all killed)
condition context: 10 µM unless noted
Compounds without any hit were thinned out: in the full panel of roughly 83,000, 20% have a hit.
Below, each of the compounds is paired with its reported growth value.
Enter your answer as a number in %; do not include the unit.

- compound: "COc1cccc(/C=C2\\COc3ccc(O)c(O)c3C2=O)c1"
  reading unit: "%"
  growth: 0.944
- compound: "O=S(=O)(NCCCNc1nccc(-c2c(-c3ccc(F)c(O)c3)nc3sccn23)n1)c1ccccc1"
  reading unit: "%"
  growth: 47.2
- compound: "O=C1/C=C/[C@@H](O)[C@@H]2C[C@@H](O)C[C@H]2/C=C/CCC[C@H](CCc2ccccc2)O1"
  reading unit: "%"
  growth: -65.1
- compound: "CCOC(=O)C1=C(c2ccccc2)N=C2SC=C(c3ccc(Cl)cc3)N2C1c1ccc(Br)cc1 (stereo not drawn)"
  reading unit: "%"
  growth: 68.5
- compound: "O=C(/C=C/c1cccc(Cl)c1)c1ccc(Nc2nc(Nc3ccc(F)cc3)nc(Nc3ccc(Cl)cc3)n2)cc1"
  reading unit: "%"
  growth: 110
- compound: "Clc1cccc(Nc2ncnc3ccc(-c4cnc5[nH]ccc5c4)cc23)c1"
  reading unit: "%"
  growth: 75
- compound: "[O-]/[N+](=C\\c1ccc(-n2cc(Cc3ccccc3Cc3cn(-c4ccc(/C=[N+](/[O-])c5ccccc5)cc4)nn3)nn2)cc1)c1ccccc1"
  reading unit: "%"
  growth: 103

// next item, growth requested
Determine from records and report growth for c1cc2c(ccc3[nH]c(-c4ccc5[nH]ncc5c4)c4c(c32)CCCC4)n1
78.4
